Test name: in vitro
Assay conditions: PAMPA, PAMPA-BBB Pe, Table S1; 60 min, room temperature, 0.05 mM
Measured quantity: Papp (×10⁻⁶ cm/s)
Answers are plain numbers, in ×10⁻⁶ cm/s.

Below are worked cases with known answers.
{"Molecule": "COc1cc([C@@H]2c3cc4c(cc3C[C@H]3COC(=O)[C@@H]32)OCO4)cc(OC)c1O", "Observed result": 11.2}
{"Molecule": "COc1cc(C)cc(O)c1", "Observed result": 49.7}
{"Molecule": "COc1ccc(-c2coc3c(O)c(O)c(OC)cc3c2=O)cc1", "Observed result": 40.1}

Consider the following items and state reported Papp for each.
1. COc1cc(/C=C/C(=O)N2CCC=CC2=O)cc(OC)c1OC
2. C=C(C)[C@@H]1CCC2=CC(=O)C[C@@H](C)[C@]2(C)C1
3. CN1Cc2c(ccc3c2OCO3)[C@@H]2[C@H]1c1cc3c(cc1C[C@@H]2O)OCO3

Given back:
90.3
63.3
75

Answer for every listed entry: what is its Papp? The entries follow.
1. COc1ccc(CC(=O)c2ccc(O)cc2O)cc1
2. COc1ccc2c(c[n+](C)c3c4cc5c(cc4ccc23)OCO5)c1OC [Chelerythrine chloride]

Given back:
172
94.7

Asked: Query: Papp; subject: c1cc2c(cc1[C@H]1OC[C@H]3[C@@H]1CO[C@@H]3c1ccc3c(c1)OCO3)OCO2
Given back: 211

---

Test name: in vitro
Assay conditions: PAMPA, PAMPA-BBB Pe(10^-6 cm/sec), Table S3: compounds exhibiting low PAMPA-BBB permeability
Measured quantity: Papp

{"Molecule": "O=c1cc(O)cc(/C=C/c2ccc(O)c(O)c2)o1", "Papp": "< 1 ×10⁻⁶ cm/s"}
{"Molecule": "COc1cccc2c1cc([N+](=O)[O-])c1c(C(=O)O)cc3c(c12)OCO3", "Papp": "< 1 ×10⁻⁶ cm/s"}

Dear reader, for each entry below, please note its Papp.
1. Oc1ccc(/C=C/c2cc(O)cc(O)c2)cc1
2. COC1=CC(=O)C=C(OC)C1=O
3. Cc1cc(O)c(C=O)c2c1C(=O)Oc1c(COC(=O)/C=C/C(=O)O)c(O)c(C(=O)O)c(C)c1O2 [FUMARPRO[…]]
4. COC(=O)C1=CO[C@@H](O[C@@H]2O[C@H](CO)[C@@H](O)[C@H](O)[C@H]2O)[C@H]2[C@@H]1C(=O)C[C@@H]2C
5. CC1=C[C@H](O)CC(C)(C)[C@H]1/C=C/C(C)=C/C=C/C(C)=C/C=C/C=C(C)/C=C/C=C(C)/C=C/C1=C(C)C[C@@H](O)CC1(C)C

Given back:
["1.8 ×10⁻⁶ cm/s", "< 1 ×10⁻⁶ cm/s", "< 1 ×10⁻⁶ cm/s", "< 1 ×10⁻⁶ cm/s", "5 ×10⁻⁶ cm/s"]

Asked: Form field: reported Papp of CC(C)=CCC/C(C)=C/COc1c2ccoc2cc2oc(=O)ccc12
Given back: 5.8 ×10⁻⁶ cm/s

---

Assay conditions: Table S2: compounds exhibiting moderate to high PAMPA-BBB permeability
Measured quantity: PAMPA-BBB Pe

Some solved entries appear below for comparison.
{"Structure": "COc1cc2c(cc1OC)-c1cc3cc(OC)c(OC)cc3c(=O)n1CC2", "Observed result": "232 10^-6 cm/sec"}
{"Structure": "Cc1cc2c(C(C)C)c(O)c(O)c(C=O)c2c(O)c1-c1c(C)cc2c(C(C)C)c(O)c(O)c(C=O)c2c1O", "Observed result": "393 10^-6 cm/sec"}
{"Structure": "CCOC(=O)c1c(C)cc(O)c(C=O)c1O", "Observed result": "110 10^-6 cm/sec"}

Let us move to another entry and its PAMPA-BBB Pe.
Asked: // lookup PAMPA-BBB Pe for COc1ccc(-c2cc(=O)c3ccccc3o2)cc1OC
Given back: 249 10^-6 cm/sec

Hey, just so you know, these numbers are from paper PMC11876671.
